tgt: UniProt:P61105
Sequence (P61105 whole entry, looked up): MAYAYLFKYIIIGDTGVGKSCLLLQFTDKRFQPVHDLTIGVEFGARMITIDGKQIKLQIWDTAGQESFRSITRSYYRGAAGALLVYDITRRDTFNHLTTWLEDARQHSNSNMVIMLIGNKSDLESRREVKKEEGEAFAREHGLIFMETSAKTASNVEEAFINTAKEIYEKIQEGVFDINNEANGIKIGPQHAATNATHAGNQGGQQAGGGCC
experimental-endpoint: Ki (nM)

A. COc1ccc(C2=NN(c3cccc(F)c3)C(c3ccc(OC)cc3)C2)cc1 (configuration not stated)
B. COc1ccc(C2=NN(c3ccc(S(N)(=O)=O)cc3)C(c3ccc(OC)cc3)C2)cc1 (configuration not stated)
q: Endpoint returns whichever of A and B has the numerically higher Ki. The response must carry the label of the picked entry.
a: B
